# target under test: HNE (human neutrophil elastase) (Homo sapiens)
# Sequence (P08246 30-267): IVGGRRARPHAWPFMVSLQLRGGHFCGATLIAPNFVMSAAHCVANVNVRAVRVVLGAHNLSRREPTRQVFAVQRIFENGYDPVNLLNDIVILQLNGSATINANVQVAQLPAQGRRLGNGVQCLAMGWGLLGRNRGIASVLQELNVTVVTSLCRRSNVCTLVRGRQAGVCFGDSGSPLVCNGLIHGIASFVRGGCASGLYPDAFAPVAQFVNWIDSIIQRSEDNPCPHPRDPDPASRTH
# method: Elastase enzyme in-vitro inhibition assay
# test settings: HNE 20 nM, 15 min incubation at room temperature, substrate MeOSuc-AAPV-AMC 100 μM, PBS buffer
pIC50: −log10 of the molar value.
property: pIC50

As a guide, the following entries are already answered.
Cc1c(-c2ccnn2-c2ccc(C#N)cc2)cc(C(=O)NCCOCCOCCOCCOCCNC(=O)C(=O)NCCOCCOCCOCCOCCNC(=O)c2cc(-c3ccnn3-c3ccc(C#N)cc3)c(C)n(-c3cccc(C(F)(F)F)c3)c2=O)c(=O)n1-c1cccc(C(F)(F)F)c1
6.00 to 6.82
Cc1c(-c2ccnn2C)cc(C(=O)NCCOCCOCCNC(=O)NCCCCNC(=O)NCCOCCOCCNC(=O)c2cc(-c3ccnn3C)c(C)n(-c3cccc(C(F)(F)F)c3)c2=O)c(=O)n1-c1cccc(C(F)(F)F)c1
6.00 to 6.82
Cc1c(-c2ccnn2-c2ccc(C#N)cc2)cc(C(=O)NCCOCCOCCNC(=O)NCCOCCOCCNC(=O)c2cc(-c3ccnn3-c3ccc(C#N)cc3)c(C)n(-c3cccc(C(F)(F)F)c3)c2=O)c(=O)n1-c1cccc(C(F)(F)F)c1
> 6.82

Please look at the following compound next.
Qu. State, in one line, measured pIC50 of Cc1c(-c2ccnn2-c2ccc(C#N)cc2)cc(C(=O)NCCOCCOCCOCCNC(=O)C(=O)NCCOCCOCCOCCNC(=O)c2cc(-c3ccnn3-c3ccc(C#N)cc3)c(C)n(-c3cccc(C(F)(F)F)c3)c2=O)c(=O)n1-c1cccc(C(F)(F)F)c1
Ans. > 6.82
